tested on: NCI-H2085 (Non-Small Cell Lung Carcinoma); experiment: combination Emax (second highest fraction inhibited in the dose matrix, 72 h); higher = more inhibition; extreme values may be limits of the assay
Please enter 1.0 where combination Emax is greater than or equal to 0.6, and 0.0 where it is lower.

A selection of reference data follows.
>  <molecule>
CC1(C)CCC(CN2CCN(c3ccc(C(=O)NS(=O)(=O)c4ccc(NCC5CCOCC5)c([N+](=O)[O-])c4)c(Oc4cnc5[nH]ccc5c4)c3)CC2)=C(c2ccc(Cl)cc2)C1 [Venetoclax] + CN(C)CCCOc1ccc(-c2ccc3ncc4c(c3c2)n(C2CCOCC2)c(=O)n4C)cn1 [AZD0156] (first compound max 1 µM, 7x7, partner max 1 µM)

>  <category>
0.0

$$$$
>  <molecule>
CN(CCO)CC[C@H](CSc1ccccc1)Nc1ccc(S(=O)(=O)NC(=O)c2ccc(N3CCC([C@@H](O)c4ccccc4-c4ccc(Cl)cc4)CC3)cc2)cc1S(=O)(=O)C(F)(F)F [AZD4320] + C1CN(CCC1(C(=O)N[C@@H](CCO)C2=CC=C(C=C2)Cl)N)C3=NC=NC4=C3C=CN4 [Capivasertib] (first compound max 1 µM, 7x7, partner max 3 µM)

>  <category>
0.0

$$$$
>  <molecule>
COc1nnc2ccc(N3CCC(c4ccc(OCCN5CCN(C)C(=O)[C@H]5C)cc4)CC3)nn12 [AZD5153] + CC1(C)CCC(CN2CCN(c3ccc(C(=O)NS(=O)(=O)c4ccc(NCC5CCOCC5)c([N+](=O)[O-])c4)c(Oc4cnc5[nH]ccc5c4)c3)CC2)=C(c2ccc(Cl)cc2)C1 [Venetoclax] (first compound max 1 µM, 7x7, partner max 1 µM)

>  <category>
0.0

$$$$
>  <molecule>
CC(=O)Nc1cccc(-n2c(=O)n(C3CC3)c(=O)c3c(Nc4ccc(I)cc4F)n(C)c(=O)c(C)c32)c1 [Trametinib] + Cc1nc(-c2cn3c(n2)-c2ccc(-c4cnn(C(C)(C)C(N)=O)c4)cc2OCC3)n(C(C)C)n1 [Taselisib] (first compound max 1 µM, 7x7, partner max 10 µM)

>  <category>
0.0

$$$$

Lookup: Form field: combination Emax at least 0.6? Entry: COc1nnc2ccc(N3CCC(c4ccc(OCCN5CCN(C)C(=O)[C@H]5C)cc4)CC3)nn12 [AZD5153] + C[C@@H]1COCCN1C2=NC(=NC(=C2)C3(CC3)[S@](=N)(=O)C)C4=C5C=CNC5=NC=C4 [AZD6738] (first compound max 1 µM, 7x7, partner max 10 µM)
Found: 1.0

Lookup: Form field: combination Emax at least 0.6? Entry: CS(=O)(=O)CCNCc1ccc(-c2ccc3ncnc(Nc4ccc(OCc5cccc(F)c5)c(Cl)c4)c3c2)o1 [Lapatinib] + C[C@@H](Oc1cc(-c2cnn(C3CCNCC3)c2)cnc1N)c1c(Cl)ccc(F)c1Cl [Crizotinib] (first compound max 10 µM, 7x7, partner max 10 µM)
Found: 1.0
